Catalogue of MCV values
Species on record: Rattus norvegicus
Assay procedure: Open TG-GATES - Regimen: Single
Type: toxicity, organism-based, Sprague-Dawley
Design: regimen Single, gender Male, age 6 weeks
Condition info: in vivo, po, 100 mg/kg, 9 h, tissue Blood, route gavage, dose level Low
Dear colleague, please return just the value in fL, with no unit written.

// worked examples, MCV included
| Compound | Value observed |
| --- | --- |
| COC1=CC(=O)C[C@@H](C)[C@]12Oc1c(Cl)c(OC)cc(OC)c1C2=O | 62.9 |
| NC(N)=Nc1nc(CSCCC(N)=NS(N)(=O)=O)cs1 | 61.2 |
| COc1ccc2[nH]c([S+]([O-])Cc3ncc(C)c(OC)c3C)nc2c1 (centres undefined) | 60.6 |

From here, focus on the item given below.
For CCOC(=O)CCC(=O)O[C@H]1[C@H](O[C@@H]2[C@@H](C)[C@H](O[C@H]3C[C@@](C)(OC)[C@@H](O)[C@H](C)O3)[C@@H](C)C(=O)O[C@H](CC)[C@@](C)(O)[C@H](O)[C@@H](C)C(=O)[C@H](C)C[C@@]2(C)O)O[C@H](C)C[C@@H]1N(C)C [ERYTHROMYCIN ETHYLSUCCINATE] , what is its reported MCV?
65
